Molecular target: LXRβ (Homo sapiens)
Construct: Co-transfection expression plasmids, comprising full-length LXRα (pCMX-h LXRα[…] or LXRβ (pCMX-hLXRβ))
Sequence (P55055 whole entry): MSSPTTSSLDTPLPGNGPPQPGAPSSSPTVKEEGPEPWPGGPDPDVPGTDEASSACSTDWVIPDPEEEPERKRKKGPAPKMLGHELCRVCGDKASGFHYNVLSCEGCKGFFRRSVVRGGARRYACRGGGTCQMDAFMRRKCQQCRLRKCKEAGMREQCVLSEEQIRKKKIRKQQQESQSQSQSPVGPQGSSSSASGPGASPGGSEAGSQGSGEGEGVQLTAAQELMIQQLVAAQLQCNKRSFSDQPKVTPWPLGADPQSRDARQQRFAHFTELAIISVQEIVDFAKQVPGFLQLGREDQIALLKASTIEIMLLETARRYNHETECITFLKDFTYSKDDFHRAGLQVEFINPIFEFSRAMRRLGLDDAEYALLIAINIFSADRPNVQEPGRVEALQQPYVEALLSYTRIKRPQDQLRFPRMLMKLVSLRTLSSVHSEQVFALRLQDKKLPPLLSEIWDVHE
Sequence (P19793 whole entry partner): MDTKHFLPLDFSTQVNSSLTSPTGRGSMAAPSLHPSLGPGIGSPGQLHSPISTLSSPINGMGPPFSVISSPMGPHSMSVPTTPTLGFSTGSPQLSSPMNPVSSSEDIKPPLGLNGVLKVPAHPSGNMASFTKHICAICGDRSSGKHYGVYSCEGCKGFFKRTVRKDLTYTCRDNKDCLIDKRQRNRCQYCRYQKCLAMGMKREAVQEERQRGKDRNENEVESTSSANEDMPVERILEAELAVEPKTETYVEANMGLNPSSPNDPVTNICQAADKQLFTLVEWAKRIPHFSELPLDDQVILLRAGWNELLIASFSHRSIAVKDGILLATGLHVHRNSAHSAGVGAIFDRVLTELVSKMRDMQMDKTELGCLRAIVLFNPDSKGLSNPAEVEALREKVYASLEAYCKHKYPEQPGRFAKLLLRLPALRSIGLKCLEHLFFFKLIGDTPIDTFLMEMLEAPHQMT
Experiment: Co-transfection assay (LXRE luciferase reporter), LXRβ
Settings: CV-1 cells transfected with pCMX-hLXRβ and LXREx1-Tk-Luciferase; 20 hours incubation
Protocol: To measure the ability of compounds to activate or inhibit the transcriptional activity of LXR in a cell based assay, the co-transfection assay was used. It has been shown that LXR functions as a heterodimer with RXR. […] Treatment of transfected cells with an LXR agonist increases the transcriptional activity of LXR, which is measured by an increase in luciferase activity. […]
RECORDED_ENDPOINT: EC50 (nM)

Cc1cc(-c2cc(-c3cccc(S(C)(=O)=O)c3)ccc2-n2cc(C(F)(F)F)nc2C)n(-c2ccc3c(c2)OC(F)(F)O3)n1 ... 28
Cc1nc(C(F)(F)F)cn1-c1ccc(-c2cc(F)c(CO)c(S(C)(=O)=O)c2)cc1-c1nc(C2CC2)oc1-c1ccc2c(c1)OC(F)(F)O2 ... 40
Cc1nc(-c2cc(-c3cccc(S(C)(=O)=O)c3)ccc2-n2cc(C(F)(F)F)nc2C)c(-c2ccc(N(C)C)cc2)o1 ... 85
Cc1nc(C(F)(F)F)cn1-c1ccc(-c2cccc(S(C)(=O)=O)c2)cc1-c1oc(CCO)nc1-c1ccc2c(c1)OC(F)(F)O2 ... 410

I = Cc1ccc(-c2cnnn2-c2cc(-c3cc(Cl)c(CO)c(S(C)(=O)=O)c3)ccc2-n2cc(C(F)(F)F)nc2C)cc1
II = Cc1nc(-c2cc(-c3cccc(S(C)(=O)=O)c3)ccc2-n2cc(C(F)(F)F)nc2C)c(-c2ccc(OC(F)F)c(OC3CC3)c2)o1
Query :: Which value of EC50 is greater, the one for I or the one for II ? Returns: label corresponding to the selected item.
Result :: I
